- run description: ATG_ERE_CIS: Attagene CIS-FACTORIAL HepG2 Assay for Estrogen Response Element (ERE) (AID 2282940)
- recorded conditions: HepG2 ERE cis-reporter, Attagene RNA transcript; actives raise or lower the signal
Calls of active or inactive are those of the source. Rule for the calls: active = hit-call score of the fitted dose curve at least 0.9, where 1 is the maximum; inactive = score below 0.9.
reported metric: AC50

[[record]]
substance_smiles = "CCOC(N)=O"
reported_metric = "AC50"
value_measured = "inactive"

[[record]]
substance_smiles = "CCCc1ccccc1"
reported_metric = "AC50"
value_measured = "inactive"

[[record]]
substance_smiles = "NC(N)=O"
reported_metric = "AC50"
value_measured = "inactive"

[[record]]
substance_smiles = "CCCCOC(=O)c1ccccc1"
reported_metric = "AC50"
value_measured = "inactive"

[[record]]
substance_smiles = "O=c1[nH]cnc2c1ncn2[C@H]1CC[C@@H](CO)O1"
reported_metric = "AC50"
value_measured = "inactive"


AC50 reading for `CCCCCCCCCCCCCCO` : inactive

AC50 reading for `C[C@]12C=CC(=O)C=C1CC[C@H]1[C@@H]3C[C@@H](O)[C@](O)(C(=O)CO)[C@@]3(C)C[C@H](O)[C@@]12F` : 17.8 µM (active)

AC50 reading for `Cc1nccn1-c1ccc(Sc2cccc(C3(C(N)=O)CCOCC3)c2)cc1` : inactive

AC50 reading for `NNC(=O)c1ccncc1` : 26.6 µM (active)

AC50 reading for `OCCOCCOCCO` : inactive
